Source: ChEMBL document CHEMBL4270513

Listing: EC50 of selected molecules
Target desc: Melanocortin receptor 5 (Homo sapiens)
Sequence (P33032 whole entry): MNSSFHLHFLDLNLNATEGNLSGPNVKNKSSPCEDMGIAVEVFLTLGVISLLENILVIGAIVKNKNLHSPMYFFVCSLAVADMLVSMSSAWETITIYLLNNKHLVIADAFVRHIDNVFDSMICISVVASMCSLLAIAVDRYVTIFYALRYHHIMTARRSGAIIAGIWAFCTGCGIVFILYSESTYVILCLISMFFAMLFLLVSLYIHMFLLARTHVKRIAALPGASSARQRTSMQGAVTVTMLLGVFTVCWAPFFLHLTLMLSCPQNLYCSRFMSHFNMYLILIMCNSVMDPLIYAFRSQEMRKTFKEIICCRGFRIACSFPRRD
Test details: Agonist activity at human MC5R expressed in HEK293 cells after 3 mins by cAMP assay
Square brackets hold non-standard residues; d marks the D form. Peptide text beside a SMILES is read from it. dPhe(4-Cl) = N[C@H](Cc1ccc(Cl)cc1)C(=O)O; Nle = CCCC[C@H](N)C(=O)O
Give your result in µM as a bare value.

>>> value_observed("CC(=O)N[C@@H](Cc1cnc[nH]1)C(=O)N[C@H](Cc1ccccc1)C(=O)N[C@@H](CCCN=C(N)N)C(=O)N[C@@H](Cc1c[nH]c2ccccc12)C(N)=O")
0.0039
>>> value_observed("CCCC[C@H](NC(=O)[C@@H](Cc1ccc(Cl)cc1)NC(=O)[C@H](Cc1cnc[nH]1)NC(C)=O)C(=O)N[C@@H](Cc1c[nH]c2ccccc12)C(N)=O (Ac-H[dPhe(4-Cl)][Nle]W-NH2)")
0.433

Here is the next item to consider.
Reported EC50 ( CCCC[C@H](NC(=O)[C@@H](Cc1ccccc1)NC(=O)[C@H](Cc1cnc[nH]1)NC(C)=O)C(=O)N[C@@H](Cc1c[nH]c2ccccc12)C(N)=O (Ac-H[dF][Nle]W-NH2) ) = 0.037
